This collection of values is drawn from patent US9296757B2.

Biological target: human full-length MKNK1 (Homo sapiens (Human), UniProt Q9BUB5, T344D)
Sequence (Q9BUB5 other isoform, or with tags, fused parts or gaps T344D): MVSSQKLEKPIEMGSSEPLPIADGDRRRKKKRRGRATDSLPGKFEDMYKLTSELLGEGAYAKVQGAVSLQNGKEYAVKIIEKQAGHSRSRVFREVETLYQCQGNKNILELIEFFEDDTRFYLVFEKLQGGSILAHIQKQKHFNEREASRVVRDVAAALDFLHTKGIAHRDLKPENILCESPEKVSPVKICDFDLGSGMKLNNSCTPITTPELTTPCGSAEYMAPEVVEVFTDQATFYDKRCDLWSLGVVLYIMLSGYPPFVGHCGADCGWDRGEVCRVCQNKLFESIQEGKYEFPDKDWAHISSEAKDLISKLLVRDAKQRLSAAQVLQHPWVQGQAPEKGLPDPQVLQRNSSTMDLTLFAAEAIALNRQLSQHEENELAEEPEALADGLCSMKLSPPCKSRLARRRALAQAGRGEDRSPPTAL
Assay: MKNK1 kinase high ATP assay (TR-FRET)
Details: high ATP (2 mM final), 15 min preincubation with enzyme
result.type: IC50 (nM)

Below, each entry is followed by its recorded IC50 result.
{"columns": ["molecule", "result.type", "reported.measurement"],
 "data": [
  ["CN1CCN(C(=O)C2CCc3c(sc4ncnc(Nc5ccc6[nH]c(=O)sc6c5)c34)C2)CC1 (racemic) [Example 29]", "IC50", 48],
  ["CN(C)CCN(C)C(=O)C1CCc2c(sc3ncnc(Nc4ccc5[nH]c(=O)sc5c4)c23)C1 (racemic)", "IC50", 36]
]}

(I) CN(C)C(=O)CN(C)C(=O)C1CCc2c(sc3ncnc(Nc4ccc5[nH]c(=O)sc5c4)c23)C1 (racemic)
(II) CC(C)(C)OC(=O)N[C@@H](CCO)C(=O)NCC1CCc2c(sc3ncnc(Nc4ccc5[nH]c(=O)sc5c4)c23)C1 (mixture of isomers)
Query :: Field: lower IC50 | Options: I / II Provide the label of your selected option as the answer.
Result :: I

---

Biological target: human full-length MKNK1 (Homo sapiens (Human), UniProt Q9BUB5, T344D)
Test: MKNK1 kinase high ATP assay (TR-FRET)
Conditions: high ATP (2 mM final), 15 min preincubation with enzyme
result.type: IC50 (nM)

Below, each entry is followed by its recorded IC50 result.
{"columns": ["compound", "unit.name", "reported.measurement"],
 "data": [
  ["COCCN(CCOC)C(=O)C1CCc2c(sc3ncnc(Nc4cc5sc(=O)[nH]c5cc4OC)c23)C1 (racemic)", "nM", 0.7],
  ["O=C(C1CCc2c(sc3ncnc(Nc4ccc5[nH]c(=O)sc5c4)c23)C1)N1CCC(CO)CC1 (racemic)", "nM", 47],
  ["CN(CCN1CCOCC1)C(=O)C1CCc2c(sc3ncnc(Nc4ccc5[nH]c(=O)sc5c4)c23)C1 (racemic)", "nM", 46],
  ["COc1cc2[nH]c(=O)sc2cc1Nc1ncnc2sc3c(c12)CCC(C(=O)N(CCN(C)C)Cc1ccccc1)C3 (racemic)", "nM", 0.6],
  ["O=C(C1CCc2c(sc3ncnc(Nc4ccc5[nH]c(=O)sc5c4)c23)C1)N1Cc2ccccc2C1 (racemic)", "nM", 72]
]}

(P) CCCCN(C)C(=O)C1CCc2c(sc3ncnc(Nc4ccc5[nH]c(=O)sc5c4)c23)C1 (racemic)
(Q) O=C(C1CCc2c(sc3ncnc(Nc4ccc5[nH]c(=O)sc5c4)c23)C1)N1CCCC1CO (racemic)
(R) CN(CCCO)C(=O)C1CCc2c(sc3ncnc(Nc4ccc5[nH]c(=O)sc5c4)c23)C1 (racemic)
Query :: Please give the order of these compounds when sorted by IC50, largest value leading. To answer, write out the labels according to the requested order.
Result :: R, Q, P
(R: 62 nM, Q: 35 nM, P: 21 nM)

(A) CC(C)(O)C(=O)NCC1CCc2c(sc3ncnc(Nc4ccc5[nH]c(=O)sc5c4)c23)C1 (racemic)
(B) CCOC(=O)C1CCc2c(sc3ncnc(Nc4cc5sc(=O)[nH]c5cc4OC)c23)C1 (racemic)
(C) CN1CCN(C(=O)C2CCc3c(sc4ncnc(Nc5ccc6[nH]c(=O)sc6c5)c34)C2)CC1 (racemic) [Example 37]
Query :: Please give the order of these compounds when sorted by IC50, largest value leading. To answer, write out the labels according to the requested order.
Result :: A, C, B

(A) CC(C)NC(=O)NCC1CCc2c(sc3ncnc(Nc4ccc5[nH]c(=O)sc5c4)c23)C1 (racemic)
(B) CCN(CCOC)C(=O)C1CCc2c(sc3ncnc(Nc4ccc5[nH]c(=O)sc5c4)c23)C1 (racemic)
Query :: Field: lower IC50 | Options: A / B Provide the label of your selected option as the answer.
Result :: B
(B: 24 nM, A: 59 nM)
